Experiment: SMARCA2 (BRM) function activators, primary screen, cell-based, luminescence, high throughput (AID 652017);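 also: 0% = vehicle wells and 100% = reference activator wells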
Settings: MG213 cells, MMTV-luciferase reporter, dexamethasone, overnight; at 9.1 µM; active compounds read high
Among all 370,000 compounds or so, about 3,800 (1%) were called active. The list comes from a sample in which actives are over-represented; it also holds close analogues and randomly drawn compounds.
experimental-endpoint: activation (%)

- COC(=O)C12C=C3CC(c4ccccc4)=C3C(=O)N1Cc1[nH]c3ccccc3c1C2 (stereo not drawn): -3.71
- COc1ccc(-n2c(SCC(=O)NC3CCCC3)nnc2-c2ccncc2)cc1: -4.56
- COc1ccc(S(=O)(=O)N(CC(=O)N/N=C/c2ccc(C(=O)O)cc2)Cc2ccccc2)cc1OC: 0.18
- Cc1cc(C)cc(-c2nnc(SCC(=O)NC3CC3)o2)c1: 2.96
- CCCCN(C)Cc1c(C)[nH]c2ccc(Cl)cc2c1=O: -3.5
- COc1cc(/C=N/NC(=O)c2ccccc2)ccc1OS(=O)(=O)c1ccccc1: 11.6
- Cc1ccnc(-n2sc3ccccc3c2=O)n1: 1.96
- COc1ccccc1Cc1c(-c2ccc(Cl)cc2)nc2ccc(Cl)cn12: 4.42
- Cc1c[nH]c2cccc(-c3ccc(Cl)cc3)c12: -2.85
- COc1cccc(C(=O)Nc2nc3ccc(S(C)(=O)=O)cc3s2)c1: 8.68
- Cc1ccc(C2=CCN(C)C(=O)N2c2ccc(Cl)cc2)cc1: 1.89
- O=C(O)c1ccccc1-c1ccccc1C(=O)NCCc1ccccc1: 1.35
- Cc1ccc(S(=O)(=O)c2c[nH]c3ccc(C)cc3c2=O)cc1: -1.93
- COc1ccc(CN2C(=O)N3Cc4cc(OC)ccc4C3CS2(=O)=O)cc1 (stereo not drawn): -5.55
- CCOC(=O)Nc1ccc(S(=O)(=O)N(C)C(C)C)cc1: -0.48
- Cc1cc(Br)cn2c(Cc3ccccc3C(F)(F)F)c(-c3ccc(C#N)cc3)nc12: -1.52
- Cc1ccc(-c2nc3ccc(Br)cn3c2Cc2ccccc2C(F)(F)F)cc1: 8.44
- CC(OC(=O)c1cccnc1Cl)C(=O)NC1CCCCC1 (stereo not drawn): -0.77
- O=C1CCC2(CCC(c3ccc(Cl)cc3)CC2)N1CCO (stereo not drawn): -3.07
- COP(=O)(O)CNC(=O)OCc1ccccc1: -0.59
- CCOc1cc(NC(=S)NCCCOC)c(OCC)cc1NC(=O)c1ccco1: 9.88
- Cc1ccc(-c2nc3ccc(Cl)cn3c2Cc2ccccc2)cc1: 10.1
- CCOC(=O)C1(Cc2ccccc2)CCN(Cc2cn(C(C)=O)c3ccccc23)CC1: -3.37
